Test system: PC-3 prostate
Experiment: NCI tumour cell line growth inhibition, 48 h; in the data active means GI50 below about 0.43 µM; inactive means the rest
Outcome codes: y for active, n for inactive

{"smilesRepr": "COc1cc2c(cc1OCCCOc1ccc(-c3nc4ccc(N5CCN(C)CC5)cc4[nH]3)cc1)N=C[C@@H]1CCCN1C2=O", "className": "y"}
{"smilesRepr": "O=C(/C=C/c1ccco1)c1ccc(Nc2nc(Nc3ccc(F)cc3)nc(Nc3ccc(F)cc3)n2)cc1", "className": "n"}
{"smilesRepr": "O=C(Nc1cccc(C(F)(F)F)c1)c1cc2ccccc2cc1O", "className": "n"}
{"smilesRepr": "COc1cccc2c1cc1c3c(cc4c(c32)OCO4)C(=O)N1", "className": "n"}
{"smilesRepr": "COc1cc(/C=N/NC(=O)c2ccccc2Nc2cccc(C(F)(F)F)c2)cc(OC)c1OC", "className": "n"}
{"smilesRepr": "CCN(CC)Cc1cc(Nc2c3ccccc3nc3cc(Cl)ccc23)ccc1O", "className": "n"}
{"smilesRepr": "C/C(=N/O)c1ccc(Nc2cc(-n3ccnc3)c3ccccc3n2)cc1", "className": "n"}
{"smilesRepr": "O=C(/C=C/c1ccc([N+](=O)[O-])cc1)c1cccc(Nc2nc(Nc3ccccc3)nc(Nc3ccccc3)n2)c1", "className": "n"}

The measurements presented in this section are drawn from PubChem BioAssay (NCI).
